Values compiled from the kinase profiling compilation of Christmann-Franck et al. (2016).

Would you mind telling me the reported residual activity of each entry?
# target entity: MAPK10 (human)
# test name: radiometric filter-binding kinase assay, Kinase HotSpot
# experimental conditions: compound 0.5 µM; ATP 10 µM
Answers are plain numbers, in %.

| molecule | value |
| --- | --- |
| O=C(Nc1ccc(Cl)cc1)c1ccccc1NCc1ccncc1 | 89.9 |
| NC(=O)c1ccc(N(C(N)=O)c2c(F)cccc2F)nc1-c1ccc(F)cc1F | 98.4 |
| Cc1cc2ncc(-c3ccccc3)nc2cc1C | 103 |
| CCCNC(=O)Nc1ccc(Oc2ncnc3cc(OC)c(OC)cc23)cc1Cl | 100 |
| Nc1n[nH]c2nnc(-c3c(-c4ccccc4)nn4ccccc34)cc12 | 103 |
| COc1cc2ncnc(Nc3ccc(F)c(Cl)c3)c2cc1OCCCN1CCOCC1 | 102 |

# batch size: 6; output residual activity per entry
1. O=C1Cc2c([nH]c3ccc([N+](=O)[O-])cc23)-c2ccccc2N1
2. CC(C)[C@H](CO)Nc1nc(Nc2cccc(Cl)c2)c2ncn(C(C)C)c2n1
3. CS(=O)c1ccc(-c2nc(-c3ccc(F)cc3)c(-c3ccncc3)[nH]2)cc1 (centres undefined)
4. O=C(NC(NC(=S)Nc1ccc(F)c([N+](=O)[O-])c1)C(Cl)(Cl)Cl)C(c1ccccc1)c1ccccc1 (centres undefined)
5. O=c1cc(-c2cccc3c2Sc2ccccc2S3)oc(N2CCOCC2)c1
6. Nc1nc(Nc2ccc(S(N)(=O)=O)cc2)nn1C(=O)c1c(F)cccc1F

# output
[97.2, 96.7, 114, 96.2, 93.6, 100]

# batch size: 2; output residual activity per entry
1. CC(C)n1cnc2c(Nc3cccc(Cl)c3)nc(NCCO)nc21
2. CSc1nc(-c2ccc(F)cc2)c(-c2ccnc(NC(C)c3ccccc3)c2)[nH]1 (centres undefined)

# output
1: 101; 2: 125

====

Would you mind telling me the reported residual activity of each entry?
# target entity: STK10 (human)
# test name: radiometric filter-binding kinase assay, Kinase HotSpot
# experimental conditions: compound 0.5 µM; ATP 10 µM
Numbers only, in %.

| smiles structure | target entity | reported endpoint | value unit | value |
| --- | --- | --- | --- | --- |
| O=C1Nc2ccccc2/C1=C\c1c(Cl)[nH]c2ccccc12 | STK10 (human) | residual activity | % | 90.9 |

# batch size: 5; output residual activity per entry
1. O=C1Nc2cc(Br)ccc2/C1=C1/Nc2ccccc2/C1=N\O
2. C#Cc1cccc(Nc2ncnc3cc(OCCOC)c(OCCOC)cc23)c1
3. CCCNC(=O)Nc1ccc(Oc2ncnc3cc(OC)c(OC)cc23)cc1Cl
4. CC(C)[C@H](CO)Nc1nc(Nc2cccc(Cl)c2)c2ncn(C(C)C)c2n1
5. Oc1ccc(-c2nc(-c3ccc(F)cc3)c(-c3ccncc3)[nH]2)cc1

# output
[52.8, 20.3, 35, 81.8, 85]

====

# target entity: PDGFRA (human) (UniProt P16234)
# Sequence (P16234 whole entry, looked up): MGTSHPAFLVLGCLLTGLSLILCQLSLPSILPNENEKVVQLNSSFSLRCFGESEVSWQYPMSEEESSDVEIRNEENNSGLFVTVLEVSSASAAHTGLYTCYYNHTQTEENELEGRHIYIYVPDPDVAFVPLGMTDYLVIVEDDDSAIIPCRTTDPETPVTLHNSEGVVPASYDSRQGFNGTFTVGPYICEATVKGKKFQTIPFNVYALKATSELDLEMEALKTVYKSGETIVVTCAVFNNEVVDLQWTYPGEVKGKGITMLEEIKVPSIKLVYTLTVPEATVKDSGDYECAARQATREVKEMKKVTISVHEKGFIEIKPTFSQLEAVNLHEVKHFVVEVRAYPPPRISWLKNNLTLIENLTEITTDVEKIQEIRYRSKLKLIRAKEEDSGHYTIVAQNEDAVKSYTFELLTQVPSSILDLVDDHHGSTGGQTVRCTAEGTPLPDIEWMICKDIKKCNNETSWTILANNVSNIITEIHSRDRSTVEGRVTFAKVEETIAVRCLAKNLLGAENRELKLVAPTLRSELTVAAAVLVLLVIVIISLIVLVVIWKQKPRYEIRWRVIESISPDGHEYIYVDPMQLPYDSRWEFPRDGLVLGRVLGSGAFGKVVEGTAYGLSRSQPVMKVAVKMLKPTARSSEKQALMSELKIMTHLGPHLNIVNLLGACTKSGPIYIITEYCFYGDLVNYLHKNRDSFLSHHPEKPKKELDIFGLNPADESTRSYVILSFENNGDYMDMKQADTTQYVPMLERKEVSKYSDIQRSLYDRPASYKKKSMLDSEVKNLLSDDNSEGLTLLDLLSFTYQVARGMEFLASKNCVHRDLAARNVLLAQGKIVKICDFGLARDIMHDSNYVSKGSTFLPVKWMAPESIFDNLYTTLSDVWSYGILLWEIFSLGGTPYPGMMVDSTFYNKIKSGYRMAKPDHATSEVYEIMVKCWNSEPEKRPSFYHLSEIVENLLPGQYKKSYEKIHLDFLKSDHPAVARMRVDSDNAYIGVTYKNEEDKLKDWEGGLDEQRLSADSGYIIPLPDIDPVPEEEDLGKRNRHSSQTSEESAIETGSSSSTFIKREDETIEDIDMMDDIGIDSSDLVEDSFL
# test name: radiometric filter-binding kinase assay, Kinase HotSpot
# experimental conditions: compound 0.5 µM; ATP 10 µM
reported endpoint: residual activity (%)
Numbers only, in %.

// below: answered molecules
| molecule | value unit | value |
| --- | --- | --- |
| O=C1Cc2c([nH]c3ccc([N+](=O)[O-])cc23)-c2ccccc2N1 | % | 91.7 |
| C#Cc1cccc(Nc2ncnc3cc(OCCOC)c(OCCOC)cc23)c1 | % | 84.4 |
| CSc1nc(-c2ccc(F)cc2)c(-c2ccnc(NC(C)c3ccccc3)c2)[nH]1 (stereo unspecified) | % | 102 |
| Clc1ccc(Nc2nnc(Cc3ccncc3)c3ccccc23)cc1 | % | 33.3 |
| CS(=O)c1ccc(-c2nc(-c3ccc(F)cc3)c(-c3ccncc3)[nH]2)cc1 (stereo unspecified) | % | 98.8 |
| Cc1cc2ncc(-c3ccccc3)nc2cc1C | % | 95.4 |
| COc1cc2nccc(Oc3ccc(NC(=S)NC(=O)c4ccccc4C)cc3)c2cc1OC | % | 12.5 |
| CC(C)(C)c1nc2c3ccc(F)cc3c3c(=O)[nH]ccc3c2[nH]1 | % | 92.1 |
| CC(C)[C@H](CO)Nc1nc(Nc2cccc(Cl)c2)c2ncn(C(C)C)c2n1 | % | 96.9 |
| Cc1ccc(NC(=O)c2ccc(CN3CCN(C)CC3)cc2)cc1Nc1nc(-c2cccnc2)cs1 | % | 1.64 |

# batch size: 3; output residual activity per entry
1. NC(=O)c1ccc(N(C(N)=O)c2c(F)cccc2F)nc1-c1ccc(F)cc1F
2. CCCNC(=O)Nc1ccc(Oc2ncnc3cc(OC)c(OC)cc23)cc1Cl
3. O=C(Nc1ccc(Cl)cc1)c1ccccc1NCc1ccncc1

# output
[102, 92.2, 81.3]
